- measured.target: UbcH7 (Homo sapiens)
- Construct: made in house; host or cells: E. coli BL21-CodonPlus RP (plasmid pET3a-UbcH7 His, gifted by Professor Martin Scheffner)
- Sequence (P68036 whole entry): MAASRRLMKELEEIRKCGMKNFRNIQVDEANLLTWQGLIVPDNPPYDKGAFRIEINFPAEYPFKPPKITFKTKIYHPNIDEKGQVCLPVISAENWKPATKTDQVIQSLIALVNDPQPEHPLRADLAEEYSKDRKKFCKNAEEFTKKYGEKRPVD
- assay.info: UbcH7 counter autoubiquitination assay
- Assay type: biochemical
- applied.conditions: 1 mM compound, 1% DMSO; in Table S6 73735 and 217913 synthesised
Label 0.0 if UbcH7 Activity falls below 90%; label 1.0 in every other case.

test.smiles	category.label
N#CCSc1nc2nc(Cl)c(Cl)nc2[nH]1	1.0
COc1cc(-c2ccc(Nc3ccccc3C(=O)O)c(OC)c2)ccc1Nc1ccccc1C(=O)O	0.0
CCc1oc2ccccc2c1C(=O)c1cc(Br)c(O)c(Br)c1	0.0
O=C(O)CSc1nc2nc(Cl)c(Cl)nc2[nH]1	1.0
